# assay-info: Selectivity index, ratio of CC50 for african green monkey Vero cells to EC50 for Mayaro virus
# Assay type: toxicity, cell-based
# condition-description: read-out: Ratio CC50/EC50
property-name: selectivity ratio
Write no unit; give the number alone.

Exam item: Output measured selectivity ratio for this item: "O=C(O)c1cnc2c(cnn2-c2ccccc2)c1Nc1ccccc1"
Marked response: 28

Exam item: Output measured selectivity ratio for this item: "O=C(O)c1cnc2c(cnn2-c2ccccc2)c1Nc1cccc(Cl)c1"
Marked response: 71

Exam item: Output measured selectivity ratio for this item: Nc1nc2c(ncn2COCCO)c(=O)[nH]1 [ACYCLOVIR]
Marked response: 880

---

# assay-info: Cytotoxicity against Chlorocebus aethiops (African green monkey) Vero cells after 72 hr by MTT assay
# Type: cell-based
# condition-description: chlorocebus sabaeus
Lab note: anything with CC50 at 72 h below 600 µM is marked MET; values at 600 µM or higher are marked NOT MET.

Exam item: Does this molecule meet the criterion CC50 at 72 h < 600 µM? "Nc1nc2c(ncn2COCCO)c(=O)[nH]1"
Marked response: NOT MET

Exam item: Does this molecule meet the criterion CC50 at 72 h < 600 µM? "O=C(O)c1cnc2c(cnn2-c2ccccc2)c1Nc1cccc(Cl)c1"
Marked response: MET

Exam item: Does this molecule meet the criterion CC50 at 72 h < 600 µM? "O=C(O)c1cnc2c(cnn2-c2ccccc2)c1Nc1ccccc1"
Marked response: MET

Exam item: Does this molecule meet the criterion CC50 at 72 h < 600 µM? "CCOC(=O)c1cnc2c(cnn2-c2ccccc2)c1Nc1cccc([N+](=O)[O-])c1"
Marked response: NOT MET

Sourced from ChEMBL document CHEMBL3045152
